# tested.target: CK1α (Homo sapiens, UniProt P48729+Q96SW2)
# Construct: CSNK1A1-HiBit KI HEK293(LgBit) Cells; host or cells: HEK293(LgBit) knock-in cells
# Sequence (P48729 whole entry): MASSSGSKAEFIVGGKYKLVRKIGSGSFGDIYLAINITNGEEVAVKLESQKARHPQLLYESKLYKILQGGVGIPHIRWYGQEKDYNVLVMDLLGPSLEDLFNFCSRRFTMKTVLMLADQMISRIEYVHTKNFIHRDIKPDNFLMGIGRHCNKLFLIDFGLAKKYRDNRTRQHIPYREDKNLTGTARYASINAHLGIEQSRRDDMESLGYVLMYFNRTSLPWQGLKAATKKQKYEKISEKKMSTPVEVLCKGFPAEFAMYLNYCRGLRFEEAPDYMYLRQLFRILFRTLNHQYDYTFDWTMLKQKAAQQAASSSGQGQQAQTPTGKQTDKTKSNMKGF
# Sequence (Q96SW2 whole entry): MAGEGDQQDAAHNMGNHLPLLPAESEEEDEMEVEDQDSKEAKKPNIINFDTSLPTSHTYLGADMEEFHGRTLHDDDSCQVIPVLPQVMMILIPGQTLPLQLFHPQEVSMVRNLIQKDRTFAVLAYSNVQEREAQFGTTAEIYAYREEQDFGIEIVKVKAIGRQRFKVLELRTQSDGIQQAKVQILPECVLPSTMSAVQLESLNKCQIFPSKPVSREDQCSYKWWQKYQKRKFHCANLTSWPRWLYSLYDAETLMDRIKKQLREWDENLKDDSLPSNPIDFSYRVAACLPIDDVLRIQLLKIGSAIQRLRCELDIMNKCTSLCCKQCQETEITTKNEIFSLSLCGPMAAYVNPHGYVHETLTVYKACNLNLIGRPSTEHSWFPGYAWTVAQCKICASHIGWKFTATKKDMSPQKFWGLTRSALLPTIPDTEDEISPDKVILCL
# Sequence (Q16531 whole entry partner): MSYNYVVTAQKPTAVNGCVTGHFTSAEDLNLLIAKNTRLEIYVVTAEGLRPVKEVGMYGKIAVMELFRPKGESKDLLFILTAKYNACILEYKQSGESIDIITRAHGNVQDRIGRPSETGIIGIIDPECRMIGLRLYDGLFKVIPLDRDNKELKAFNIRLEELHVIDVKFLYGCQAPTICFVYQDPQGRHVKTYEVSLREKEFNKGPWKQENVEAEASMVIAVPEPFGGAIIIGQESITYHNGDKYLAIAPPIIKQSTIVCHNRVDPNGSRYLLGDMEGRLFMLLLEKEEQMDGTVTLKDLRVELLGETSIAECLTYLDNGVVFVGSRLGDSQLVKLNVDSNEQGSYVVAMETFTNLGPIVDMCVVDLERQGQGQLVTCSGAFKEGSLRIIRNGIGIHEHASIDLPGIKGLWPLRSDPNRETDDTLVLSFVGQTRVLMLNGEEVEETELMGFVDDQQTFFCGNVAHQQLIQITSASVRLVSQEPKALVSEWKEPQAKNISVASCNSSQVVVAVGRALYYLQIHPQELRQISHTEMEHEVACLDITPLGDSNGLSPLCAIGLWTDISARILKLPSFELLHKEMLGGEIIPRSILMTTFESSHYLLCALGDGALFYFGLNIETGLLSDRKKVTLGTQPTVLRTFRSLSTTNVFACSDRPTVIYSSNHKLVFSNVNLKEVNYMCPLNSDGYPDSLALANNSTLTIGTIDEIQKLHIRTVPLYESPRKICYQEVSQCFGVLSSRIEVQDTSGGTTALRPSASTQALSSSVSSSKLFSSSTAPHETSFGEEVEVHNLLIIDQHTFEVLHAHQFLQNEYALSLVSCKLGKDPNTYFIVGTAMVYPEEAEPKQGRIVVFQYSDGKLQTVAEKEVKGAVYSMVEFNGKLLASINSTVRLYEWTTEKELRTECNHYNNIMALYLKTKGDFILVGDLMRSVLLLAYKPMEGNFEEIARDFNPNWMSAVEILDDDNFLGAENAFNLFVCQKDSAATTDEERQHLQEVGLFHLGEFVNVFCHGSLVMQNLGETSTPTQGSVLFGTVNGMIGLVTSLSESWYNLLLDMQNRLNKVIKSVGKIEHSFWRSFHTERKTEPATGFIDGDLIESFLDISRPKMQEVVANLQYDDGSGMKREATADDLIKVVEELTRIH
# measurement.protocol: HiBiT degradation assay, CK1α, Procedure A
# Type: cell-based
# condition.summary: six hours
quantity.kind: CK1α Ymin

compound: Cc1ccc(Cl)cc1-c1nc(-c2ccc3c(c2)CN(C2CCC(=O)NC2=O)C3=O)cn1C (stereo not shown)
result: C (C = 0-10% remaining)
--
compound: Cn1cc(-c2ccc3c(c2)CN(C2CCC(=O)NC2=O)C3=O)nc1-c1ccncc1 (stereo not shown)
result: C (C = 0-10% remaining)
--
compound: Cn1cc(-c2ccc3c(c2)CN(C2CCC(=O)NC2=O)C3=O)nc1-c1cccc(OC2CC2)c1 (stereo not shown)
result: C (C = 0-10% remaining)
